assayMethodText: MTS assay in HepG2 cells
Type: cell-based
conditionsUsed: human, HepG2 hepatoma cells; at 50 µM, percentage of control (vehicle-treated cells); read-out: HepG2 Cell Viability (%)
# note: boundary value 70% maps to NO; viability at 48 h, 50 µM below it maps to YES

Threshold test, viability at 48 h, 50 µM < 70%: CCC(=O)c1ccc(OCCCCCCN2CCC(C)CC2)cc1.O=C(O)C(=O)O [Compound 13] YES

Same read-out for CCC(=O)c1ccc(OCCCCCCN2CCCCCC2)cc1.O=C(O)C(=O)O [Compound 17] ? YES

Same read-out for CCC(=O)c1ccc(OCCCCCN2CCCCCC2)cc1.O=C(O)C(=O)O [Compound 16] ? YES

Same read-out for CCC(=O)c1ccc(OCCCCCN2CCC(C)CC2)cc1 [Compound 12] ? NO
